- System: A2780
- protocolNotes: Antiproliferative activity against human A2780 cells incubated for 48 hrs by MTT assay
- Format: functional, cell-based
- testParameters: A2780, 48 h
// reported IC50 for each item listed
assayEndpoint: IC50 (µM)

structureNotation | reportedMeasurement
C=Cc1c(C)/c2[nH]/c1=C\C1=NC(=C\C3=NC(=C\C4=NC(=C5C=CC(C(=O)OC)=C(C(=O)OC)[C@@]45C)\C=2)/C(C)=C3CCC(=O)OC)/C(CCC(=O)O)=C1C | 12.4
O=C1C=C(Nc2ccc(O)cc2)C(=O)c2ccccc21 | 3.8

---

// reported IC50 for each item listed
- System: Transcriptional enhancer factor TEF-4-Lipid
- protocolNotes: Inhibition of His-tagged TEAD2 (unknown origin) to lipid (unknown origin) interaction preincubated for 30 mins followed by biotinylated lipid addition and measured after 60 mins by TR-FRET assay
- Parameters: species or system Homo sapiens

structureNotation | IC50 / nM
CCOC(=O)c1cnn2c(=O)cc(-c3ccc(C(F)(F)F)cc3)[nH]c12 | 1600
O=C(c1c(-c2cnccn2)nn2c(=O)cc(-c3ccc(C4CCCCC4)cc3)[nH]c12)N1CC(CF)C1 | 20
Cc1nccnc1-c1nn2c(=O)cc(-c3ccc(C4CCCCC4)cc3)[nH]c2c1C(=O)N1CC(CF)C1 | 10
N#C[C@@H]1CCN(C(=O)c2cnn3c(=O)cc(-c4ccc(C5CCCCC5)cc4)[nH]c23)C1 | 20
